target: UniProt:Q96RI1; assay: transient human FXR/Gal4-luciferase reporter assay; settings: Gal4-hFXR (ligand binding domain) fusion transiently transfected in HEK293 Gal4-luciferase reporter cells; overnight incubation; response as percentage of 8 μM GW-4064 control
Define the label as yes when EC50 is strictly less than 900 nM and as no in all remaining cases.

// known answers, use as guide
COc1ccc(C23CCC(CN(C(=O)C4CCCCC4)c4cccc(/C=C/c5nc(C)no5)c4)(CC2)CC3)cc1 ... yes
COC(=O)/C=C/c1cccc(N(CC23CCC(c4ccc(C5CC5)cc4)(CC2)CC3)C(=O)C2CC2)c1 ... no
COC(=O)/C=C/c1cccc(N(CC23CCC(c4ccc(C(C)C)cc4)(CC2)CC3)C(=O)C2CC2)c1 ... no
COC(=O)/C=C(\C)c1cccc(N(CC23CCC(c4ccc(C5CC5)cc4)(CC2)CC3)C(=O)C2CCCCC2)c1 ... yes
COC(=O)/C=C(\C)c1cccc(N(CC23CCC(c4ccc(OC)cc4)(CC2)CC3)C(=O)C2CCCCC2)c1 ... yes

Input: Here's an entry: COC(=O)/C=C(\C)c1cccc(N(CC23CCC(c4ccc(N5CCOCC5)cc4)(CC2)CC3)C(=O)C2CCCCC2)c1 . Is its EC50 below 900 nM?
Output: no

Input: Please indicate whether the reported EC50 of COC(=O)/C=C/c1cccc(N(CC23CCC(c4nc5ccccc5s4)(CC2)CC3)C(=O)C2CC2)c1 is strictly below 900 nM.
Output: yes

---

Target: human FXR (Homo sapiens)
Sequence (Q96RI1 262-486 limits assumed): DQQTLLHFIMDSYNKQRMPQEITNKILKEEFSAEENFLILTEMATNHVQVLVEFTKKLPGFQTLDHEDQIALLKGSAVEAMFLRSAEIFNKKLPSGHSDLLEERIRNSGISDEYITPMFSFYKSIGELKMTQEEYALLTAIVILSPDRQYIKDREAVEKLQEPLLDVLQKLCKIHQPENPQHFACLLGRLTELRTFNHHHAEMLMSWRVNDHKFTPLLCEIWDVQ
Experiment: transient human FXR/Gal4-luciferase reporter assay
Conditions: Gal4-hFXR (ligand binding domain) fusion transiently transfected in HEK293 Gal4-luciferase reporter cells; overnight incubation; response as percentage of 8 μM GW-4064 control
EC50 under 200 nM gets true, anything at or over 200 nM gets false.

Observe how each entry below is paired with its result.
COC(=O)C1=Cc2cccc(N(CC34CCC(c5nc(C)no5)(CC3)CC4)C(=O)C3CCCCC3)c2CC1 ... false
COC(=O)/C=C/c1cccc(N(CC23CCC(c4nc(C5CCOCC5)no4)(CC2)CC3)C(=O)C2CCCCC2)c1 ... true
COC(=O)C1=Cc2cccc(N(CC34CCC(c5ccc(C6CC6)cc5)(CC3)CC4)C(=O)C(C)C)c2CC1 ... false
COC(=O)/C=C/c1cccc(N(CC23CCC(c4ccc(C5CC5)cc4)(CC2)CC3)C(=O)C2CCCCC2)c1 ... true

Now look at this one.
Input: is_below(EC50, 200 nM) for COC(=O)/C=C/c1cccc(N(CC23CCC(c4nc(C)no4)(CC2)CC3)C(=O)C2CCOCC2)c1 ?
Output: false

---

Some molecules, each annotated with its measured EC50.
Biological target: human FXR (Homo sapiens)
Sequence (Q96RI1 262-486 limits assumed): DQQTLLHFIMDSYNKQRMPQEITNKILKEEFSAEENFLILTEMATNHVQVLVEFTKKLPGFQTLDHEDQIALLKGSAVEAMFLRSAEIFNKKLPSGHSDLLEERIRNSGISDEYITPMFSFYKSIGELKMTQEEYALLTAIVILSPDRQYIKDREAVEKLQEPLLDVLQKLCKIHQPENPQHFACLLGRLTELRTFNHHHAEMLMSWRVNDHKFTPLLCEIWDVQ
Test: transient human FXR/Gal4-luciferase reporter assay
Settings: Gal4-hFXR (ligand binding domain) fusion transiently transfected in HEK293 Gal4-luciferase reporter cells; overnight incubation; response as percentage of 8 μM GW-4064 control
Remember to quote the unit after the number.

So for Cc1noc(C23CCC(CN(C(=O)C4CCCCC4)c4cccc(/C=C/C(=O)N(C)C)c4)(CC2)CC3)n1 [Example 27] , the logged EC50 turned out to be 4460 nM

---

molecular target: human FXR (Homo sapiens); assay: transient human FXR/Gal4-luciferase reporter assay; settings: Gal4-hFXR (ligand binding domain) fusion transiently transfected in HEK293 Gal4-luciferase reporter cells; overnight incubation; response as percentage of 8 μM GW-4064 control
reported.endpoint: EC50
Could you give the number and then its unit, please?

Solved entries:
COC(=O)/C=C/c1cccc(N(CC23CCC(c4ccc(N(C)C)cc4)(CC2)CC3)C(=O)C2CCOCC2)c1 [Example 6] ... 0.212 µM
COC(=O)C1=Cc2cccc(N(CC34CCC(c5ccc(N(C)C)cc5)(CC3)CC4)C(=O)C3CCCCC3)c2CC1 [Example 12] ... 2.58 µM
CCN(CC)c1ccc(C23CCC(CN(C(=O)C4CCCCC4)c4cccc5c4CCC(C(=O)OC)=C5)(CC2)CC3)cc1 [Example 13] ... 0.912 µM
COC(=O)/C=C(\C)c1cccc(N(CC23CCC(c4nc(C)no4)(CC2)CC3)C(=O)C2CCCCC2)c1 [Example 19] ... 0.551 µM
COC(=O)/C=C/c1cccc(N(C(=O)C2CCCCC2)C(C)C23CCC(c4nc(C)no4)(CC2)CC3)c1 (single isomer, unassigned) [Example 46] ... 0.302 µM
COC(=O)C1=Cc2cccc(N(CC34CCC(c5ccc6c(cnn6C)c5)(CC3)OC4)C(=O)C3CCCCC3)c2CC1 [Example 45] ... 1.15 µM

What the record says about COC(=O)/C=C(\C)c1cccc(N(CC23CCC(c4ccc(C5CC5)cc4)(CC2)CC3)C(=O)C2CC2)c1 [Example 36] : EC50 is 1.78 µM

EC50 for COC(=O)C1=Cc2cccc(N(CC34CCC(c5ccc(N6CCOCC6)cc5)(CC3)CC4)C(=O)C3CCCCC3)c2CC1 [Example 11] is 2.74 µM

EC50 in this record for COC(=O)/C=C/c1cccc(N(CC23CCC(c4ccc(C(C)C)cc4)(CC2)CC3)C(=O)C2CCCCC2)c1 [Example 38] : 0.196 µM

---

Biological target: UniProtKB Q96RI1
Sequence (Q96RI1 262-486 limits assumed): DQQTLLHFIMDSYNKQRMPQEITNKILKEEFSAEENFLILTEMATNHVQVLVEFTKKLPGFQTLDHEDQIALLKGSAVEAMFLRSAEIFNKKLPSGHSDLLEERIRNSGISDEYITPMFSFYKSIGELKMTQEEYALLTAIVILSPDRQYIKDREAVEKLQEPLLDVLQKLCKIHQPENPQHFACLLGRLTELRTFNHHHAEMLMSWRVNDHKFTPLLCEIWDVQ
Experiment: transient human FXR/Gal4-luciferase reporter assay
Conditions: Gal4-hFXR (ligand binding domain) fusion transiently transfected in HEK293 Gal4-luciferase reporter cells; overnight incubation; response as percentage of 8 μM GW-4064 control
# reported pEC50; entries follow
pEC50 field: float, defined as -log10 of concentration (mol/L).

# annotated cases, reported pEC50 shown
COC(=O)/C=C/c1cccc(N(CC23CCC(c4ccc5c(cnn5C)c4)(CC2)OC3)C(=O)C2CCOCC2)c1 ... 5.80
COC(=O)/C=C/c1cccc(N(CC23CCC(c4nc(C)no4)(CC2)CC3)C(=O)C2CC2)c1 ... 5.61
COC(=O)/C=C/c1cccc(N(CC23CCC(c4noc(C)n4)(CC2)CC3)C(=O)C2CCCCC2)c1 ... 7.06
CN(C)c1ccc(C23CCC(CN(C(=O)C4CCCCC4)c4cccc(/C=C/C(=O)O)c4)(CC2)CC3)cc1 ... 5.82
COC(=O)/C=C/c1cccc(N(C(=O)C2CCCCC2)C(C)C23CCC(c4nc(C)no4)(CC2)CC3)c1 (single isomer, unassigned) [Example 47] ... 6.82

Measured pEC50 of COC(=O)C1=Cc2cccc(N(CC34CCC(c5ccc(OC)cc5)(CC3)CC4)C(=O)C3CCCCC3)c2CC1 : 5.74

Given item COC(=O)/C=C/c1cccc(N(CC23CCC(c4ccc(N(C)C)cc4)(CC2)CC3)C(=O)C2CCCCC2)c1 , the value recorded as its pEC50 is 7.11

// recorded pEC50 for CC(C)(O)C#Cc1cccc(N(CC23CCC(c4nnc(C(C)(C)C)o4)(CC2)CC3)C(=O)C23CC(F)(C2)C3)c1 : 7.52

response.value for COC(=O)/C=C/c1cccc(N(CC23CCC(c4ccccc4)(CC2)CC3)C(=O)C2CCCCC2)c1 (field: pEC50) = 6.40

pEC50 measured on COC(=O)/C=C/c1cccc(N(CC23CCC(c4nc(C)no4)(CC2)CC3)C(=O)C23CC(F)(C2)C3)c1 = 6.91

Recorded pEC50 (compound COC(=O)/C=C/c1cccc(N(CC23CCC(c4ccc5c(cnn5C)c4)(CC2)OC3)C(=O)C2CCN(C)CC2)c1 ): 5.33

Reported pEC50 for COC(=O)/C=C/c1cccc(N(CC23CCC(c4nc(C)no4)(CC2)CC3)C(=O)C(C)C)c1 was 6.07

Just so you know, measured pEC50 for CC(C)(O)C#Cc1cccc(N(CC23CCC(c4noc(C(C)(F)F)n4)(CC2)CC3)C(=O)C23CC(F)(C2)C3)c1 came out at 7.41

Value of measured pEC50 for the entry COC(=O)/C=C/c1cccc(N(CC23CCC(c4ccc(N5CCCC5)cc4)(CC2)CC3)C(=O)C2CCCCC2)c1 : 6.28

The measured pEC50 associated with COC(=O)/C=C/c1cccc(N(CC23CCC(c4nc5ccccc5s4)(CC2)CC3)C(=O)C2CCCCC2)c1 reads 6.65

Quick note, pEC50 for COC(=O)/C=C/c1cccc(N(CC23CCC(c4nc(C)no4)(CC2)CC3)C(=O)C2CC(F)(F)C2)c1 landed at 6.52

// COC(=O)/C=C/c1cccc(N(CC23CCC(c4nc(N5CCOCC5)no4)(CC2)CC3)C(=O)C2CCCCC2)c1 : pEC50 value = 6.93

So for COc1ccc(C23CCC(CN(C(=O)C4CCCCC4)c4cccc5c4CCC(C(=O)O)=C5)(CC2)CC3)cc1 , the logged pEC50 turned out to be 5.65
